The origin of these recorded values is PubChem BioAssay.

Test system: Sonic hedgehog protein (Shh)
assay.comment: small-molecule binders of Shh protein, primary screen, biochemical, small-molecule microarray, 635/667 nm fluorescence (AID 1151);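 further: Shh protein binding to compounds spotted on small-molecule microarray slides; score combines spot fluorescence intensity with signal-to-noise across triplicate slides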
particulars: small-molecule microarray binding, 635 nm fluorescence; higher = more signal
Parameter: composite z-score. Scope: all listed entries.

{"columns": ["compound", "composite z-score"],
 "data": [
  ["COCCCN1C(=O)[C@@]2(Cc3ccccc31)c1ccccc1C(=O)N(Cc1ccccc1OC)[C@H]2c1ccc(CO)cc1", 0.0923],
  ["COc1ccc(NC(=O)O[C@H]2[C@H](OC(=O)Nc3ccc4c(c3)OCO4)[C@H](OC(=O)Nc3ccc4c(c3)OCO4)[C@@H](OC)O[C@@H]2CO)cc1", 0.725],
  ["COc1ccc(C#Cc2ccc3c(c2)[C@]2(C(=O)N3)[C@H](c3ccc(OCCO)cc3)N3[C@H](c4ccccc4)[C@H](c4ccccc4)OC(=O)[C@H]3[C@@H]2C(=O)O)cc1", 1.89],
  ["CN(C)CCCCNC(=O)[C@H]1C[C@H]2C(=O)N[C@@H](Cc3ccccc3)C(=O)N2[C@H]1c1cccc(OCCO)c1", 0.878],
  ["[N-]=[N+]=Nc1ccccc1[C@@H]1OC(c2ccc(OCCCO)cc2)=N[C@]1(Cc1ccccc1)C(N)=O", -0.0762],
  ["COC(=O)[C@@]1(Cc2ccc(F)cc2)[C@H]2c3cc(C(=O)N4CCCC4)n(CCO)c3C[C@H]2CN1C(=O)c1ccccc1", -1.69],
  ["COCCOC(=O)N1C(=O)[C@@]2(c3cc(C#CC4=CCCCC4)ccc31)[C@H](c1ccc(OCCO)cc1)N1[C@H](c3ccccc3)[C@H](c3ccccc3)OC(=O)[C@H]1[C@@H]2C(=O)N1CCCCCCC1", 1.91],
  ["COCCOC(=O)N1C(=O)[C@@]2(c3cc(C#CCNC(N)=O)ccc31)[C@H](C(=O)NC[C@H](O)c1ccccc1)[C@H]1C(=O)O[C@H](c3ccccc3)[C@H](c3ccccc3)N1[C@@H]2c1ccc(OCCO)cc1", 0.783],
  ["COCCOC(=O)N1C(=O)[C@@]2(c3ccccc31)[C@H](C(=O)N1CCCCCCC1)[C@H]1C(=O)O[C@H](c3ccccc3)[C@H](c3ccccc3)N1[C@@H]2c1ccc(O)cc1", 2.17],
  ["CN(C)CCCC[C@@H]1NC(=O)[C@@H]2C[C@H](C(=O)NCc3ccc(F)cc3)[C@H](c3ccc(O)cc3)N2C1=O", 2.28],
  ["CC(C)=CCN(C(=O)C#Cc1ccccc1)[C@H](CO)c1ccccc1", 0.708],
  ["CN(C)CCCC[C@@H]1NC(=O)[C@H]2C[C@@H](C(=O)O)[C@@H](c3cccc(OCCO)c3)N2C1=O", 1.84],
  ["CC(C)C[C@@H]1NC(=O)[C@H]2C[C@@H](C(=O)NCCCCCCNC(=O)CS)[C@@H](c3ccc(O)cc3)N2C1=O", 1.84],
  ["N#Cc1ccc(C(O)C2C=CC3C(=O)NC(=O)C3N2Nc2ccccn2)cc1 (stereo not drawn)", -0.301],
  ["COc1ccc([Si](C)(C)[C@H]2[C@H](CC(=O)N3Cc4ccccc4C[C@H]3CO)O[C@@]3(C(=O)N(Cc4cccc(N5C(=O)c6cccc7cccc5c67)c4)c4ccccc43)[C@@H]2C)cc1", 2.23],
  ["CCCCC(=C=CC[C@@H](O)c1cccc(OCCO)c1)C[C@@H](O)COCc1ccccc1", 0.362],
  ["C=CCNC(=O)[C@H]1[C@@H]2C(=O)O[C@@H](c3ccccc3)[C@@H](c3ccccc3)N2[C@@H](c2ccc(O)cc2)[C@]12C(=O)Nc1ccc(C#CC3=CCCCC3)cc12", 2],
  ["C/C=C/CN(C(=O)C#Cc1ccccc1)[C@H](CO[Si](C)(C)C(C)(C)C)c1ccccc1", 0.248],
  ["C=C(/C(=C/C[C@@H](OC(C)=O)c1ccccc1OCCO)c1cc(C(=O)OC)ccc1OC)C(C)C", 1.02],
  ["COC(=O)[C@@]1(Cc2ccc(OC)cc2)[C@@H]2[C@@H](CC(=O)[C@H]2CC(=O)C(=O)N2CCCC2)CN1C(=O)c1ccccc1", -0.566],
  ["O=C1NC(=O)C2C1C=CC(C(O)c1cccc(O)c1)N2Nc1ccc(Cl)cc1Cl (stereo not drawn)", -1.14],
  ["COC(=O)[C@@]1(Cc2ccccc2CN=[N+]=[N-])COC(c2ccc(OCCCO)cc2)=N1", -1.15],
  ["CO[C@H]1O[C@H](CO)[C@@H](OC(=O)Nc2ccc3c(c2)OCO3)[C@@H]2OC(=O)[C@@H](Cc3ccccc3)C/C=C/C[C@H](Cc3ccccc3)C(=O)O[C@@H]12", 1.32],
  ["CC(C)C[C@H]1NC(=O)[C@@]23C(=O)N[C@@H](Cc4ccccc4)C2[C@H](C)[C@@]2(C)O[C@H]2C3/C=C/C/C=C\\CNC(=O)[C@@H]2CCCN2C1=O (stereo partly drawn)", 1.55],
  ["CCOC(=O)C1=C(C(=O)OCC)N(S(=O)(=O)CC[Si](C)(C)C)[C@H](c2ccccc2)CC1", -0.424],
  ["CO[C@H]1O[C@H](CO)[C@@H](OC(=O)Nc2ccccc2)[C@@H]2OC(=O)[C@H](Cc3ccccc3)C/C=C/C[C@@H](Cc3ccccc3)C(=O)O[C@@H]12", 1.62],
  ["COc1ccc(CCNC(=O)[C@@]2(Sc3ccc(C)cc3)CC(=O)N(C(C)C)[C@@H]2c2ccc(CO)cc2)cc1", -1.6],
  ["CCOC(=O)C1=C[C@@H](C(C)(C)C)N(S(=O)(=O)c2ccc(C)cc2)[C@H]1c1ccccc1Cl", 0.577]
]}

###

assay.comment: basal MM1S mitochondrial membrane potential changes, profiling panel, cell-based, JC-1 fluorescence, 24 h, 100 nL compound (AID 1170); further: test concentration not given here
particulars: higher = more signal

{"columns": ["compound", "z-score"],
 "data": [
  ["COC(=O)[C@@H]1N=C(c2ccc(OCCCO)cc2)O[C@@H]1c1ccccc1CN=[N+]=[N-]", -0.741],
  ["[N-]=[N+]=NCc1ccccc1C[C@]1(C(=O)N2CCCCC2)N=C(c2ccc(OCCCO)cc2)O[C@H]1c1ccccc1", -2.38],
  ["C=CC[C@@]1(C(=O)O)N=C(c2ccc(OCCCO)cc2)O[C@@H]1c1ccccc1CN=[N+]=[N-]", -1.54],
  ["CCCCNC(=O)c1ccc(C#C[Si](C)(C)C)c(OC(C)=O)c1", -0.601],
  ["C=CCC(OC(C)=O)[C@@H]1[C@@H](N(Cc2cc3ccccc3o2)C(=O)c2ccc(-c3ccccc3)cc2)c2cc(OCCCO)ccc2N1C(=O)c1ccc2ccccc2n1 (stereo partly specified)", 1.32],
  ["CCOC(=O)C1=C[C@@H](C(C)(C)C)N(S(=O)(=O)c2ccc(C)cc2)[C@H]1c1ccccc1Cl", -0.863],
  ["C=C(C(=O)CC[C@@H](OC(C)=O)c1cccc(OCCO)c1)C(C)C", 0.484],
  ["O=C1C2C=CC(C(O)c3cccs3)N(Nc3ccccc3)C2C(=O)N1c1ccccc1 (stereo unspecified)", -0.542],
  ["COC(=O)[C@@]1(CCC(=O)OC(C)(C)C)N=C(c2ccc(OCCCO)cc2)O[C@H]1c1ccccc1CN=[N+]=[N-]", -1.73],
  ["COC(=O)[C@@]1(CCS(=O)(=O)c2ccccc2)N=C(c2ccc(OCCCO)cc2)O[C@H]1c1ccccc1N=[N+]=[N-]", -0.426],
  ["C=C(COC)/C(=C/C[C@@H](OC(C)=O)c1ccccc1OCCO)c1cc(C(=O)OC)ccc1OC", -0.875],
  ["[N-]=[N+]=NCc1ccccc1C[C@]1(C(=O)NCc2ccccc2)N=C(c2ccc(OCCCO)cc2)O[C@H]1c1ccccc1CN=[N+]=[N-]", -0.214],
  ["C[C@H]1C2[C@H](Cc3ccccc3)NC(=O)[C@]23C(=O)NCC(=O)N2CCC[C@H]2C(=O)NC/C=C\\C/C=C/C3[C@@H]2O[C@]12C (stereo partly specified)", 0.227],
  ["O=C1N(Cc2ccccc2)c2ccccc2[C@H]2OC(c3ccc(OCCCO)cc3)=N[C@@]12Cc1ccccc1", -1.66],
  ["C#CCN=C(N)N", -0.922],
  ["CCCCC(=C=CC[C@@H](O)c1cccc(OCCO)c1)CCO", -1.09],
  ["O=C1C2C=CC(C(O)C(c3ccccc3)c3ccccc3)N(Nc3ccccc3)C2C(=O)N1c1ccccc1 (stereo unspecified)", -0.401],
  ["CCCCC(O)C1C=CC2C(=O)NC(=O)C2N1Nc1ccc(Cl)cc1Cl (stereo unspecified)", 0.724],
  ["Cc1ccc(S[C@]2(C(=O)NC3CC3)CC(=O)N(Cc3cc(C(F)(F)F)cc(C(F)(F)F)c3)[C@@H]2c2ccc(CO)cc2I)cc1", -2.03],
  ["O=C1OCCC/C=C\\[C@H]2OC34C=CCN(Cc5ccccc5)C(=O)[C@H]3N(CCCCCO)C(=O)[C@@H]4C12 (stereo partly specified)", -0.322],
  ["C=CC(CO)NC(=O)OCC1c2ccccc2-c2ccccc21 (stereo unspecified)", 0.128],
  ["CC#CCO[Si](C#CCCCCCC)(C(C)C)C(C)C", -1.3],
  ["C=CCC(OC(C)=O)[C@@H]1[C@@H](N(Cc2cc3ccccc3o2)C(=O)Cc2ccc(OC)cc2)c2cc(OCCCO)ccc2N1C(=O)Cc1ccc(OC)cc1 (stereo partly specified)", 0.799],
  ["CCC[C@@H]1[C@@H](Sc2ccccc2)[C@@H](C(=O)O)[C@H](c2ccc(C)cc2)N1S(=O)(=O)c1ccc(C)cc1", -1.64],
  ["N#Cc1ccc(C(O)C2C=CC3C(=O)N(c4ccccc4)C(=O)C3N2Nc2ccc([N+](=O)[O-])cc2)cc1 (stereo unspecified)", -1.43],
  ["Cc1ccc(S[C@]2(C(=O)NCCN3CCOCC3)CC(=O)N(C3CCCCC3)[C@@H]2c2ccc(CO)cc2I)cc1", -1.53],
  ["CN(C)CCCNC(=O)[C@@]1(Cc2ccccc2I)c2ccccc2C(=O)N(Cc2ccccc2)[C@H]1c1ccc(CO)cc1", -1.54],
  ["COCCOC(=O)N1C(=O)[C@@]2(c3ccccc31)[C@H](C(=O)N1CCCCCCC1)[C@H]1C(=O)O[C@H](c3ccccc3)[C@H](c3ccccc3)N1[C@@H]2c1ccc(O)cc1", -0.21],
  ["COCCOC(=O)N1C(=O)[C@@]2(c3cc(C#CCC(C(=O)OC)C(=O)OC)ccc31)[C@H](C(=O)N1CCc3cc(OC)c(OC)cc3C1)[C@H]1C(=O)O[C@H](c3ccccc3)[C@H](c3ccccc3)N1[C@@H]2c1ccc(O)cc1", 0.516],
  ["COCCOC(=O)N1C(=O)[C@@]2(c3ccccc31)[C@H](c1ccc(OCCO)cc1)N1[C@H](c3ccccc3)[C@H](c3ccccc3)OC(=O)[C@H]1[C@@H]2C(=O)N1CCN(c2ncccn2)CC1", -1.1],
  ["COC(=O)[C@H](Cc1ccc(O)cc1)N1CC2=CCCC=C[C@@H]2[C@H]1[C@H](O)Cc1ccccc1", -1.58]
]}
